molecular target: PXR:RXRa (Homo sapiens, UniProt O75469;P19793 full;full); experiment: no ligand; PBM; 270 nM : 90 nM RXRa; PBS pH 7.4, 2% milk, 0.02% Triton X-100, 1 mM DTT, BSA, 0.4 mg/ml salmon testes DNA; settings: tags: His kept;His cleaved; copies: 1;1; label: surface-attached array probe
Sequence (O75469 whole entry, chain 1 of 2): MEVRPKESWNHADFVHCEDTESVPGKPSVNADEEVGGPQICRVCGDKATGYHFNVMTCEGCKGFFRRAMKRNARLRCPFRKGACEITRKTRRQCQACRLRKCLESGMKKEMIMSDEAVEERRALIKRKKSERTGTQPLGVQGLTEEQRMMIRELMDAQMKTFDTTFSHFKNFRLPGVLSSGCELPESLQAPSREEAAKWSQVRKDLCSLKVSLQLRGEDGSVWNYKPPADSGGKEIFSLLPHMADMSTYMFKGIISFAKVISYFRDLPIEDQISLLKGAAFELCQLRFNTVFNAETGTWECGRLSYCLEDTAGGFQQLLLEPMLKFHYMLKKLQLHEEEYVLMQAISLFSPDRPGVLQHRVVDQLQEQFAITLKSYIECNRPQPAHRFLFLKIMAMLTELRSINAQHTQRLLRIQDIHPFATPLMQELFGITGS
Sequence (P19793 whole entry, chain 2 of 2): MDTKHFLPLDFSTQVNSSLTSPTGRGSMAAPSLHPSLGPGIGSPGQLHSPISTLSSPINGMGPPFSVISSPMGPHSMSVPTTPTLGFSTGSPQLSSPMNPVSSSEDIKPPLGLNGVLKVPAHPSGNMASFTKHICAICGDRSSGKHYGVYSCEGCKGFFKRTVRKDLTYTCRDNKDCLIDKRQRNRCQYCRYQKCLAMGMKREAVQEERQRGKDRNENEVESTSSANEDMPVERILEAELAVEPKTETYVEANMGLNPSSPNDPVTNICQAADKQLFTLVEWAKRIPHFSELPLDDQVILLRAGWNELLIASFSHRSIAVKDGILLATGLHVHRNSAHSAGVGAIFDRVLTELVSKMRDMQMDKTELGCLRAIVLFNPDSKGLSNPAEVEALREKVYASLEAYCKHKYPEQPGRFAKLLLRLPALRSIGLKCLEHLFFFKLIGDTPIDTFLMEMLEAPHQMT
measured.endpoint: binding signal

Fill in binding signal for record NRC3_wobSeed46_DR1_G13C_o1 (dsDNA) DNA 1: GCTTACCAAGGTCAAAGGTCGTTGATGCACGCCTTGGCGATTGACAGCGTAGAATGAAGG DNA 2: CCTTCATTCTACGCTGTCAATCGCCAAGGCGTGCATCAACGACCTTTGACCTTGGTAAGC
7 PBM z-score against 500 random probes
